# Experimental Target: SMARCA4 (Homo sapiens)
# Construct: endogenous in cells
# Sequence (P51532 whole entry, species assumed): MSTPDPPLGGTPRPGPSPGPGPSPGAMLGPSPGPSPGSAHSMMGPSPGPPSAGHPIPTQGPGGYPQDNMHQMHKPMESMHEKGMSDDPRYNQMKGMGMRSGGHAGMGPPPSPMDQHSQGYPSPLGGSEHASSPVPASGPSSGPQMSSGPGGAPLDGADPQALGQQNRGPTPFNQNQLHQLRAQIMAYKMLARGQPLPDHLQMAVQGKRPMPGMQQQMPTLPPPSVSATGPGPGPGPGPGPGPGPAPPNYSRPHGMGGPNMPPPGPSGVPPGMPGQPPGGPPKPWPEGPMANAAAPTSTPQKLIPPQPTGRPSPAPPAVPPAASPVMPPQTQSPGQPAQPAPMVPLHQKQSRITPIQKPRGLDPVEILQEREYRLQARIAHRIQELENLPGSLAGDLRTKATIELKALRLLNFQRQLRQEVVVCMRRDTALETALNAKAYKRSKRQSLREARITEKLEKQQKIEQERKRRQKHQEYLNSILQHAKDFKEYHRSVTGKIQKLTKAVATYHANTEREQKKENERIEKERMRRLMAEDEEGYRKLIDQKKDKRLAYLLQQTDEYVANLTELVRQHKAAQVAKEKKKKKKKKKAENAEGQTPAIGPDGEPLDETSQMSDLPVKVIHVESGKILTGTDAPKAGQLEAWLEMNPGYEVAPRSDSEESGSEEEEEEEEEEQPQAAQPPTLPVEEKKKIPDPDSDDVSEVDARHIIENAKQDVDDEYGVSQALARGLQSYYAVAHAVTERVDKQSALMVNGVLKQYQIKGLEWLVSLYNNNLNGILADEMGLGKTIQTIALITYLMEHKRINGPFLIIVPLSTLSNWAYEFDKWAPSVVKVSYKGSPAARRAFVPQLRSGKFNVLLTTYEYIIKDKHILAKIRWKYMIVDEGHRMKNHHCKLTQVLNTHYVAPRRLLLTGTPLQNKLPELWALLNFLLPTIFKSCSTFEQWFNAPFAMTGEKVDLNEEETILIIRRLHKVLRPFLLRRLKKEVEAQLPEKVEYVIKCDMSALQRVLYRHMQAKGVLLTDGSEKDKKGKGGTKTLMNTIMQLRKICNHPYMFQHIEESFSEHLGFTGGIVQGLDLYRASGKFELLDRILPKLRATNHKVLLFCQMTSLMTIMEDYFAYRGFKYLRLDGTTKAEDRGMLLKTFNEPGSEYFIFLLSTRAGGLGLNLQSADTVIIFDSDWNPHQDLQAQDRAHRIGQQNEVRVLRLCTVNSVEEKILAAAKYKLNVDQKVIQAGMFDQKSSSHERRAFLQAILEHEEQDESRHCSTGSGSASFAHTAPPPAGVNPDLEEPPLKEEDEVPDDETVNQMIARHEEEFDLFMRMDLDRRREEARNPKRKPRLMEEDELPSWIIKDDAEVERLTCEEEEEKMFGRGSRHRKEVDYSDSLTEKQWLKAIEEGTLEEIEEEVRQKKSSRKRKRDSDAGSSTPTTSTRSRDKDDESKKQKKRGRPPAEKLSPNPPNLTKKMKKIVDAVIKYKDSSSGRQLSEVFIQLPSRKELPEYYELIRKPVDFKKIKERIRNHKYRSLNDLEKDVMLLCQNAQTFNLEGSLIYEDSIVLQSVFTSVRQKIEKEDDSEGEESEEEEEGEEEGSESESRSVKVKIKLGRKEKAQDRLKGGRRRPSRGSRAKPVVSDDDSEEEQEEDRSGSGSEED
# Protocol Notes: Cellular degradation assay, SMARCA4 (Table 1)
# Type: cell-based
Observable: Dmax (%)

# Molecule, Experimental Target, Dmax (%)
data = [
    ("O=C1CC[C@H](c2ccc(N3CCC(CN4CC[C@H]5[C@H](CCN5C(=O)C5(c6ccccc6)CCN(c6cnnc(-c7ccccc7O)c6)CC5)C4)CC3)cc2)C(=O)N1 (mixture of isomers)", "SMARCA4 (Homo sapiens)", 51.5),
    ("Cc1ccn(C2(C(=O)NC3CCN(CC4CCN(c5ccc([C@H]6CCC(=O)NC6=O)cc5)CC4)C4(CCC4)C3)CCN(c3cnnc(-c4ccccc4O)c3)CC2)n1 (stereo partly drawn)", "SMARCA4 (Homo sapiens)", 63.9),
    ("O=C1CC[C@H](c2ccc(N3CCC(CN4CCCN(C(=O)C5(c6ccccc6)CCN(c6cnnc(-c7ccccc7O)c6)CC5)CC4)CC3)cc2)C(=O)N1", "SMARCA4 (Homo sapiens)", 45.1),
]
